target: 5-HT2A receptor (Homo sapiens); construct: expressed in transfected cells; host or cells: HEK293T; test: 5-HT2A Gq dissociation BRET functional assay; type: cell-based; conditions: 5-HT2A BRET EC50 (nM), Table 2; at least three replicate trials
Sequence (P28223 whole entry): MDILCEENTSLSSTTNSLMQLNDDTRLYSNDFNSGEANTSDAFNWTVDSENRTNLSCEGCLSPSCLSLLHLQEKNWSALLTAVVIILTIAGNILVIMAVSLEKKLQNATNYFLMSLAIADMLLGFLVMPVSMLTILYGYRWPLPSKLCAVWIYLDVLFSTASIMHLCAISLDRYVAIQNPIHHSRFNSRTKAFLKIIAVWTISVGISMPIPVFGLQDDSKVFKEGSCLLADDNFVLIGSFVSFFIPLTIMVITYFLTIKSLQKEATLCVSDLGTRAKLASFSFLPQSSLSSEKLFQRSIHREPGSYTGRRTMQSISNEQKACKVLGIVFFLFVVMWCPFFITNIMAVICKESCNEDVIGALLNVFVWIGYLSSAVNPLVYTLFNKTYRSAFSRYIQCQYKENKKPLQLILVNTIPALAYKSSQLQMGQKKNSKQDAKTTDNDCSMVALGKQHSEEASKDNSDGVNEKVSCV
This listing pairs compounds with measured EC50.
Your answer is read as nM, so omit the unit and give the number.

The examples below pair each entry with its known result.
// query What value of EC50 has been recorded for this entry: `COc1cc2c(cc1CCNCc1ccccc1O)CCO2`
// result 2.3

// query What value of EC50 has been recorded for this entry: `COc1cc(C#N)ccc1CCNCc1ccccc1SC`
// result 2.4

Let us move to another entry and its EC50.
// query What value of EC50 has been recorded for this entry: `COc1cc(C#N)ccc1CCNCc1cccc(Cl)c1`
// result 393
